system: PPARg homodimer (NR concentration 180 nM); assay: PBM binding z-score (relative to random genomic background probes); higher = stronger binding; sequences stand for … in GC…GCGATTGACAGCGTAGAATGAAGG
Field: PBM binding z-score. Provide a value for each of the sequences that follow.
Hey, just send me the number, nothing else.

## Task Entry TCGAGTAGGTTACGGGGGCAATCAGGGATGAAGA has what PBM binding z-score?
## Result 1.35

## Task Entry CTATGGAGGTTAAGGGGGTCATTCAGTTTGAAAG has what PBM binding z-score?
## Result 4.29

## Task Entry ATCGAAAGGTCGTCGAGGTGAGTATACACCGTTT has what PBM binding z-score?
## Result 1.6

## Task Entry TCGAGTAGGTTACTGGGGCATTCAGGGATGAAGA has what PBM binding z-score?
## Result 0.888

## Task Entry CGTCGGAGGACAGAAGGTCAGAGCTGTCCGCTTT has what PBM binding z-score?
## Result 1.33

## Task Entry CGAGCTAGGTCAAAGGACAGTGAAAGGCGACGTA has what PBM binding z-score?
## Result 1.2

## Task Entry GATAGTTGGTCAGTAAAAGGTCACACACCGGTCG has what PBM binding z-score?
## Result 4.23

## Task Entry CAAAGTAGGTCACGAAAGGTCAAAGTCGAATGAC has what PBM binding z-score?
## Result 5.21

## Task Entry CCGAGTAGGTTACGCGGGGGCATTCAGTGCGAAT has what PBM binding z-score?
## Result 1.38

## Task Entry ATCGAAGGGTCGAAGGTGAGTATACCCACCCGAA has what PBM binding z-score?
## Result 0.676

## Task Entry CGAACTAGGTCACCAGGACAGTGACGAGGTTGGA has what PBM binding z-score?
## Result 1.63

## Task Entry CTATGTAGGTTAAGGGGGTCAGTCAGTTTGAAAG has what PBM binding z-score?
## Result 3.02

## Task Entry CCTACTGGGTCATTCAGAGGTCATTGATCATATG has what PBM binding z-score?
## Result 6.37

## Task Entry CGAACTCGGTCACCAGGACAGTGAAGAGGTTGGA has what PBM binding z-score?
## Result 0.233

## Task Entry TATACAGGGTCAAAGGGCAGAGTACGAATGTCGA has what PBM binding z-score?
## Result 2.97

## Task Entry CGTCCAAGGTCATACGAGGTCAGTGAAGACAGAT has what PBM binding z-score?
## Result 5.5

## Task Entry CCGACTGGGGCAAAGGTTACCACACTCAGTACGA has what PBM binding z-score?
## Result 1.18

## Task Entry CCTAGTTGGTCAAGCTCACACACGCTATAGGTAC has what PBM binding z-score?
## Result 0.772

## Task Entry CGATGTAGGTTAAGGGGGTCATTCAGTTTGAAAG has what PBM binding z-score?
## Result 5.88

## Task Entry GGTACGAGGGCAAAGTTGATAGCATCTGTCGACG has what PBM binding z-score?
## Result 1.2

## Task Entry CTATGAAGGTTAAGGGGGTCATTCAGTTTGAAAG has what PBM binding z-score?
## Result 4.25

## Task Entry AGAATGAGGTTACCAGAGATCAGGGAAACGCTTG has what PBM binding z-score?
## Result 0.651

## Task Entry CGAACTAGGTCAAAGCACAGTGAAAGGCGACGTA has what PBM binding z-score?
## Result 3.43

## Task Entry CCTAGCAGACCAATCTGGGTCACTCAAGGCTTGA has what PBM binding z-score?
## Result 0.484

## Task Entry TTACCGAGGTGAAAGGTCGTTGATGCACGCCTTG has what PBM binding z-score?
## Result 2.03

## Task Entry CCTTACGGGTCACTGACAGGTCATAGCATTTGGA has what PBM binding z-score?
## Result 4.06

## Task Entry CAAACTAGGTCACGAAAGGTCAACGTCGAATGAC has what PBM binding z-score?
## Result 6.55

## Task Entry CGAACTATGTCACCAGGACAGTGAAGAGGTTGGA has what PBM binding z-score?
## Result 0.475

## Task Entry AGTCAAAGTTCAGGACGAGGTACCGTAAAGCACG has what PBM binding z-score?
## Result 0.643

## Task Entry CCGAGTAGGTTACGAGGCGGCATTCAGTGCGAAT has what PBM binding z-score?
## Result 0.605

## Task Entry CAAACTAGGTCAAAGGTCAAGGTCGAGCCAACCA has what PBM binding z-score?
## Result 7.67

## Task Entry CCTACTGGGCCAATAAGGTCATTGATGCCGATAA has what PBM binding z-score?
## Result 1.04

## Task Entry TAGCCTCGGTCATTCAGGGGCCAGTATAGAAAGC has what PBM binding z-score?
## Result 0.0789

## Task Entry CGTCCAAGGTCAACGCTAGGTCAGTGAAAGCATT has what PBM binding z-score?
## Result 6.46

## Task Entry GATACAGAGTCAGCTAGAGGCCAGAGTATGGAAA has what PBM binding z-score?
## Result -0.64
